test system: Mycobacterium tuberculosis Erdman (autoluminescent); experiment: AUC25, normalised area under dose response up to IC25 (three-drug combination) (fraction (0-1)); higher = more potent at low dose; conditions: in vitro model: butyrate; time point: constant (~7 days, model-specific)
QUANTITY_MEASURED: AUC25
One number for each entry.

Field: example entries. Status: answers known.
CC(C)/N=c1\cc2n(-c3ccc(Cl)cc3)c3ccccc3nc-2cc1Nc1ccc(Cl)cc1 [clofazimine] + NNC(=O)c1ccncc1 [isoniazid] + CO[C@H]1/C=C/O[C@@]2(C)Oc3c(C)c(O)c4c(O)c(c(/C=N/N5CCN(C6CCCC6)CC5)c(O)c4c3C2=O)NC(=O)/C(C)=C\C=C\[C@H](C)[C@H](O)[C@@H](C)[C@@H](O)[C@@H](C)[C@H](OC(C)=O)[C@@H]1C [rifapentine] = 0.0986
COc1nc2ccc(Br)cc2cc1[C@@H](c1ccccc1)[C@@](O)(CCN(C)C)c1cccc2ccccc12 [bedaquiline] + CC(C)/N=c1\cc2n(-c3ccc(Cl)cc3)c3ccccc3nc-2cc1Nc1ccc(Cl)cc1 [clofazimine] + CC(=O)NC[C@H]1CN(c2ccc(N3CCOCC3)c(F)c2)C(=O)O1 [linezolid] = 0.0701
CC(C)/N=c1\cc2n(-c3ccc(Cl)cc3)c3ccccc3nc-2cc1Nc1ccc(Cl)cc1 [clofazimine] + CC(=O)NC[C@H]1CN(c2ccc(N3CCOCC3)c(F)c2)C(=O)O1 [linezolid] + COc1c(N2C[C@@H]3CCCN[C@@H]3C2)c(F)cc2c(=O)c(C(=O)O)cn(C3CC3)c12 [moxifloxacin] = 0.113

Next up:
Lab entry: Mycobacterium tuberculosis Erdman (autoluminescent) assay, compound CC[C@@H](CO)NCCN[C@@H](CC)CO [ethambutol] + NNC(=O)c1ccncc1 [isoniazid] + CC(=O)NC[C@H]1CN(c2ccc(N3CCOCC3)c(F)c2)C(=O)O1 [linezolid] , AUC25 = 0.101

* * *

test system: Mycobacterium tuberculosis Erdman (autoluminescent); assay: total FIC90 (Loewe) at 90% inhibition, three-drug combination (log2); higher = more antagonistic; conditions: in vitro model: cholesterol-high 0.2 mM; time point: terminal (~4-5 doublings, model-specific)
Please use True whenever total FIC90 is not below 1, and False whenever it is.

# example entries with known answers
CC(C)/N=c1\cc2n(-c3ccc(Cl)cc3)c3ccccc3nc-2cc1Nc1ccc(Cl)cc1 [clofazimine] + CC[C@@H](CO)NCCN[C@@H](CC)CO [ethambutol] + O=[N+]([O-])c1cn2c(n1)OC[C@@H](OCc1ccc(OC(F)(F)F)cc1)C2 [pretomanid] = True
COc1nc2ccc(Br)cc2cc1[C@@H](c1ccccc1)[C@@](O)(CCN(C)C)c1cccc2ccccc12 [bedaquiline] + NNC(=O)c1ccncc1 [isoniazid] + CO[C@H]1/C=C/O[C@@]2(C)Oc3c(C)c(O)c4c(O)c(c(/C=N/N5CCN(C)CC5)c(O)c4c3C2=O)NC(=O)/C(C)=C\C=C\[C@H](C)[C@H](O)[C@@H](C)[C@@H](O)[C@@H](C)[C@H](OC(C)=O)[C@@H]1C [rifampicin] = False
CC(C)/N=c1\cc2n(-c3ccc(Cl)cc3)c3ccccc3nc-2cc1Nc1ccc(Cl)cc1 [clofazimine] + COc1c(N2C[C@@H]3CCCN[C@@H]3C2)c(F)cc2c(=O)c(C(=O)O)cn(C3CC3)c12 [moxifloxacin] + CO[C@H]1/C=C/O[C@@]2(C)Oc3c(C)c(O)c4c(O)c(c(/C=N/N5CCN(C)CC5)c(O)c4c3C2=O)NC(=O)/C(C)=C\C=C\[C@H](C)[C@H](O)[C@@H](C)[C@@H](O)[C@@H](C)[C@H](OC(C)=O)[C@@H]1C [rifampicin] = True
COc1nc2ccc(Br)cc2cc1[C@@H](c1ccccc1)[C@@](O)(CCN(C)C)c1cccc2ccccc12 [bedaquiline] + CC[C@@H](CO)NCCN[C@@H](CC)CO [ethambutol] + NC(=O)c1cnccn1 [pyrazinamide] = True
O=[N+]([O-])c1cn2c(n1)OC[C@@H](OCc1ccc(OC(F)(F)F)cc1)C2 [pretomanid] + NC(=O)c1cnccn1 [pyrazinamide] + CO[C@H]1/C=C/O[C@@]2(C)Oc3c(C)c(O)c4c(O)c(c(/C=N/N5CCN(C)CC5)c(O)c4c3C2=O)NC(=O)/C(C)=C\C=C\[C@H](C)[C@H](O)[C@@H](C)[C@@H](O)[C@@H](C)[C@H](OC(C)=O)[C@@H]1C [rifampicin] = False

Identify whether the reported total FIC90 of the following molecule is 1 or greater: COc1nc2ccc(Br)cc2cc1[C@@H](c1ccccc1)[C@@](O)(CCN(C)C)c1cccc2ccccc12 [bedaquiline] + CC[C@@H](CO)NCCN[C@@H](CC)CO [ethambutol] + COc1c(N2C[C@@H]3CCCN[C@@H]3C2)c(F)cc2c(=O)c(C(=O)O)cn(C3CC3)c12 [moxifloxacin]
True

* * *

system: Mycobacterium tuberculosis Erdman (autoluminescent); experiment: GRinf, maximum normalised growth rate inhibition (unitless (-1 to 1)); higher = less effect (negative = killing); conditions: in vitro model: acidic pH 5.7; time point: terminal (~4-5 doublings, model-specific)
Would you kindly list GRinf for each of these compounds?
Numbers only.

Sample answers from the record:
COc1c(N2C[C@@H]3CCCN[C@@H]3C2)c(F)cc2c(=O)c(C(=O)O)cn(C3CC3)c12 [moxifloxacin] + CO[C@H]1/C=C/O[C@@]2(C)Oc3c(C)c(O)c4c(O)c(c(/C=N/N5CCN(C)CC5)c(O)c4c3C2=O)NC(=O)/C(C)=C\C=C\[C@H](C)[C@H](O)[C@@H](C)[C@@H](O)[C@@H](C)[C@H](OC(C)=O)[C@@H]1C [rifampicin] = -0.0508
CC(=O)NC[C@H]1CN(c2ccc(N3CCOCC3)c(F)c2)C(=O)O1 [linezolid] + CO[C@H]1/C=C/O[C@@]2(C)Oc3c(C)c(O)c4c(O)c(c(/C=N/N5CCN(C)CC5)c(O)c4c3C2=O)NC(=O)/C(C)=C\C=C\[C@H](C)[C@H](O)[C@@H](C)[C@@H](O)[C@@H](C)[C@H](OC(C)=O)[C@@H]1C [rifampicin] = -0.211

Give GRinf for all compounds that follow.
1. CC(C)/N=c1\cc2n(-c3ccc(Cl)cc3)c3ccccc3nc-2cc1Nc1ccc(Cl)cc1 [clofazimine] + NNC(=O)c1ccncc1 [isoniazid]
2. CC(C)/N=c1\cc2n(-c3ccc(Cl)cc3)c3ccccc3nc-2cc1Nc1ccc(Cl)cc1 [clofazimine] + O=[N+]([O-])c1cn2c(n1)OC[C@@H](OCc1ccc(OC(F)(F)F)cc1)C2 [pretomanid]

-0.114
-0.285

* * *

system: Mycobacterium tuberculosis Erdman (autoluminescent); assay: GRinf, maximum normalised growth rate inhibition (three-drug combination) (unitless (-1 to 1)); higher = less effect (negative = killing); settings: in vitro model: cholesterol 0.05 mM; time point: terminal (~4-5 doublings, model-specific)
QUANTITY_MEASURED: GRinf
One number for each entry.

Solved entries:
COc1nc2ccc(Br)cc2cc1[C@@H](c1ccccc1)[C@@](O)(CCN(C)C)c1cccc2ccccc12 [bedaquiline] + COc1c(N2C[C@@H]3CCCN[C@@H]3C2)c(F)cc2c(=O)c(C(=O)O)cn(C3CC3)c12 [moxifloxacin] + O=[N+]([O-])c1cn2c(n1)OC[C@@H](OCc1ccc(OC(F)(F)F)cc1)C2 [pretomanid] = -0.21
COc1nc2ccc(Br)cc2cc1[C@@H](c1ccccc1)[C@@](O)(CCN(C)C)c1cccc2ccccc12 [bedaquiline] + CC[C@@H](CO)NCCN[C@@H](CC)CO [ethambutol] + CC(=O)NC[C@H]1CN(c2ccc(N3CCOCC3)c(F)c2)C(=O)O1 [linezolid] = -0.703

Give GRinf for each of the items listed below.
1. COc1nc2ccc(Br)cc2cc1[C@@H](c1ccccc1)[C@@](O)(CCN(C)C)c1cccc2ccccc12 [bedaquiline] + CC(C)/N=c1\cc2n(-c3ccc(Cl)cc3)c3ccccc3nc-2cc1Nc1ccc(Cl)cc1 [clofazimine] + O=[N+]([O-])c1cn2c(n1)OC[C@@H](OCc1ccc(OC(F)(F)F)cc1)C2 [pretomanid]
2. COc1nc2ccc(Br)cc2cc1[C@@H](c1ccccc1)[C@@](O)(CCN(C)C)c1cccc2ccccc12 [bedaquiline] + CC(=O)NC[C@H]1CN(c2ccc(N3CCOCC3)c(F)c2)C(=O)O1 [linezolid] + O=[N+]([O-])c1cn2c(n1)OC[C@@H](OCc1ccc(OC(F)(F)F)cc1)C2 [pretomanid]
3. CC[C@@H](CO)NCCN[C@@H](CC)CO [ethambutol] + CO[C@H]1/C=C/O[C@@]2(C)Oc3c(C)c(O)c4c(O)c(c(/C=N/N5CCN(C6CCCC6)CC5)c(O)c4c3C2=O)NC(=O)/C(C)=C\C=C\[C@H](C)[C@H](O)[C@@H](C)[C@@H](O)[C@@H](C)[C@H](OC(C)=O)[C@@H]1C [rifapentine] + CO[C@H]1/C=C/O[C@@]2(C)Oc3c(C)c(O)c4c(O)c(c(/C=N/N5CCN(C)CC5)c(O)c4c3C2=O)NC(=O)/C(C)=C\C=C\[C@H](C)[C@H](O)[C@@H](C)[C@@H](O)[C@@H](C)[C@H](OC(C)=O)[C@@H]1C [rifampicin]
4. COc1c(N2C[C@@H]3CCCN[C@@H]3C2)c(F)cc2c(=O)c(C(=O)O)cn(C3CC3)c12 [moxifloxacin] + O=[N+]([O-])c1cn2c(n1)OC[C@@H](OCc1ccc(OC(F)(F)F)cc1)C2 [pretomanid] + CO[C@H]1/C=C/O[C@@]2(C)Oc3c(C)c(O)c4c(O)c(c(/C=N/N5CCN(C6CCCC6)CC5)c(O)c4c3C2=O)NC(=O)/C(C)=C\C=C\[C@H](C)[C@H](O)[C@@H](C)[C@@H](O)[C@@H](C)[C@H](OC(C)=O)[C@@H]1C

-0.208
-0.303
-0.0993
-0.186
